Assignment: determine reported IC50 for the given compounds.
- Tested on: 519858-162-T-J1-PDC complex spheroid viability;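 further: spheroids exposed to compounds for 7 days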
- testDetails: Anticancer human tumor 519858-162-T-J1-PDC patient-derived colon adenocarcinoma cell line growth inhibition [GQUAD]
- recordedConditions: curve of first compound; second compound 1 µM

Input: What does the data say about its IC50? Entry: Cc1[nH]c2ccccc2c1CCNCc1ccc(/C=C/C(=O)NO)cc1 + Cc1[nH]c2ccc(F)cc2c1-c1nc2c3cccnc3c3ncccc3c2[nH]1
Output: > 0.316 µM

Input: Tell me the measured IC50 of CC1COCCN1c1cc(C2(O)CC3CCC(C2)O3)c2cnn(-c3ccn[nH]3)c2n1 (stereo not given) + CN(C)c1ccc(Nc2c3ccc(NC(=O)CCN4CCCC4)cc3nc3cc(NC(=O)CCN4CCCC4)ccc23)cc1 , please.
Output: 9.4 µM

Input: Name the recorded IC50 for COc1cccc2c1C(=O)c1c(O)c3c(c(O)c1C2=O)CC(O)(C(=O)CO)CC3OC1CC(N)C(O)C(C)O1 (stereo not given) + Cc1[nH]c2ccc(F)cc2c1-c1nc2c3cccnc3c3ncccc3c2[nH]1 .
Output: > 10 µM

Input: What value of measured IC50 is listed for COc1ccc([C@@H](O)c2cc(-c3ncnc4cc(N5CCOCC5)ccc34)c(F)cc2Cl)nn1 + Cc1[nH]c2ccc(F)cc2c1-c1nc2c3cccnc3c3ncccc3c2[nH]1 ?
Output: > 10 µM

Input: Query: IC50; subject: CC1COCCN1c1cc(C2(S(C)(=N)=O)CC2)nc(-c2ccnc3[nH]ccc23)n1 (stereo not given) + Cc1cnc(CNC(=O)c2c(=O)c3ccc(N4CCCN(C)CC4)nc3n3c2sc2ccccc23)cn1
Output: > 10 µM

Input: # input compound: CCCS(=O)(=O)Nc1ccc(F)c(C(=O)c2c[nH]c3ncc(-c4ccc(Cl)cc4)cc23)c1F + Cc1[nH]c2ccc(F)cc2c1-c1nc2c3cccnc3c3ncccc3c2[nH]1 ; wanted: its IC50
Output: > 10 µM

Input: Looking for the measured IC50 of CC(C)(O)C1CCC(Nc2ccc3ncc(-c4cccc(C(F)(F)F)c4)n3n2)CC1 (stereo not given) + Cc1[nH]c2ccc(F)cc2c1-c1nc2c3cccnc3c3ncccc3c2[nH]1 , can you help?
Output: 1.81 µM

Input: Entry C=CC(=O)N1CCN(c2nc(=O)n(-c3c(C)ccnc3C(C)C)c3nc(-c4c(O)cccc4F)c(F)cc23)C(C)C1 (stereo not given) + Cc1[nH]c2ccc(F)cc2c1-c1nc2c3cccnc3c3ncccc3c2[nH]1 : reported IC50 = ?
Output: > 10 µM

Input: For the compound shown here, CC(=O)O[C@H]1C(=O)[C@@]2(C)[C@H]([C@H](OC(=O)c3ccccc3)[C@]3(O)C[C@H](OC(=O)[C@H](O)[C@@H](NC(=O)c4ccccc4)c4ccccc4)C(C)=C1C3(C)C)[C@]1(OC(C)=O)CO[C@@H]1C[C@@H]2O + Cc1[nH]c2ccc(F)cc2c1-c1nc2c3cccnc3c3ncccc3c2[nH]1 , give the reported IC50.
Output: > 10 µM

Input: Entry CC[C@@]1(O)C(=O)OCc2c1cc1n(c2=O)Cc2cc3c(CN(C)C)c(O)ccc3nc2-1 + Cc1cnc(CNC(=O)c2c(=O)c3ccc(N4CCCN(C)CC4)nc3n3c2sc2ccccc23)cn1 : reported IC50 = ?
Output: > 0.316 µM
